Ref: paper PMC11314561

# targetUnderTest: IKKβ (Homo sapiens, UniProt O14920)
# Sequence (O14920 whole entry): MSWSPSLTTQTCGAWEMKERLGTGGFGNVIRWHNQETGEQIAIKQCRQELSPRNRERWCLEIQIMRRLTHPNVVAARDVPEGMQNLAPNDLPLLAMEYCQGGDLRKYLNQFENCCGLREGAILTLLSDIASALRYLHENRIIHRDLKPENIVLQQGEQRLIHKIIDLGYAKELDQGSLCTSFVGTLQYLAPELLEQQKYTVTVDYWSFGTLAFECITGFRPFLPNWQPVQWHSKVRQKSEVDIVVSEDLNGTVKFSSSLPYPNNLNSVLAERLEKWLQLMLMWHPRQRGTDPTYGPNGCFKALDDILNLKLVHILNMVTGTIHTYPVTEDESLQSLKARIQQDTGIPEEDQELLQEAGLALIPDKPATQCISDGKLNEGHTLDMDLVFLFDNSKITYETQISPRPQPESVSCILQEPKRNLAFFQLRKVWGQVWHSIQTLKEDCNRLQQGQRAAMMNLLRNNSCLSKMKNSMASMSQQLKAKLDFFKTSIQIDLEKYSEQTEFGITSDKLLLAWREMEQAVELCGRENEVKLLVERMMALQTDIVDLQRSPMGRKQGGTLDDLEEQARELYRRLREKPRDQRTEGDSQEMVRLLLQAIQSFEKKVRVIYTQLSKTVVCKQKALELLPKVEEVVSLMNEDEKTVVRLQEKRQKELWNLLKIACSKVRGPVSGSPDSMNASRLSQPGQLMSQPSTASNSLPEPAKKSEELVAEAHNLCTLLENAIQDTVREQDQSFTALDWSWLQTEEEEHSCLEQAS
# protocolSummary: DELFIA kinase assay, IKKβ
# Type: biochemical
# testParameters: read-out: Ki Values IKKβ
Ki by entry:
assayReadout: Ki (nM)

compound: Nc1n[nH]c2ccc(-c3ccnc4[nH]c(-c5ccnc(OCc6ccncc6)c5)cc34)cc12
assayReadout: Ki
observedMeasurement: 12
--
compound: NC(=O)c1cccc(-c2cc3c(-c4ccc5[nH]nc(N)c5c4)ccnc3[nH]2)c1
assayReadout: Ki
observedMeasurement: 159
--
compound: Nc1n[nH]c2ccc(-c3ccnc4[nH]c(-c5ccnc(SCc6ccccc6)c5)cc34)cc12
assayReadout: Ki
observedMeasurement: 1180
--
compound: Nc1n[nH]c2ccc(-c3ccnc4[nH]c(-c5cccc(S(=O)(=O)N6CCOCC6)c5)cc34)cc12
assayReadout: Ki
observedMeasurement: 149
--
compound: COCCOCc1cc(OCc2ccccc2)cc(-c2cc3c(-c4ccc5[nH]nc(N)c5c4)ccnc3[nH]2)c1
assayReadout: Ki
observedMeasurement: 1210
--
compound: Nc1n[nH]c2ccc(-c3ccnc4[nH]c(-c5ccnc(OCc6ccccc6)c5)cc34)cc12 [Compound 6g [SU1349]]
assayReadout: Ki
observedMeasurement: 3350
--
compound: Nc1n[nH]c2ccc(-c3ccnc4[nH]c(-c5cccc(OCc6ccccc6)c5)cc34)cc12 [Compound 5r [SU1261]]
assayReadout: Ki
observedMeasurement: 680
--
compound: Nc1n[nH]c2ccc(-c3ccnc4[nH]c(-c5cccc(OCC6CCOCC6)c5)cc34)cc12
assayReadout: Ki
observedMeasurement: 122
--
compound: Nc1n[nH]c2ccc(-c3ccnc4[nH]c5ccccc5c34)cc12
assayReadout: Ki
observedMeasurement: 5
--
compound: Nc1n[nH]c2ccc(-c3ccnc4[nH]c(-c5cccc(CNc6ccccc6)c5)cc34)cc12
assayReadout: Ki
observedMeasurement: 470
--
compound: CN1CCN(C(=O)c2cccc(-c3cc4c(-c5ccc6[nH]nc(N)c6c5)ccnc4[nH]3)c2)CC1
assayReadout: Ki
observedMeasurement: 215
--
compound: COc1cc(F)cc(-c2cc3c(-c4ccc5[nH]nc(N)c5c4)ccnc3[nH]2)c1
assayReadout: Ki
observedMeasurement: 32
--
compound: CCOc1ccccc1-c1cc2c(-c3ccc4[nH]nc(N)c4c3)ccnc2[nH]1
assayReadout: Ki
observedMeasurement: 86
--
compound: Nc1n[nH]c2ccc(-c3ccnc4[nH]c(-c5cc(F)nc(CNc6ccccc6)c5)cc34)cc12
assayReadout: Ki
observedMeasurement: 503
--
compound: Nc1n[nH]c2ccc(-c3ccnc4[nH]c(-c5ccccc5O)cc34)cc12
assayReadout: Ki
observedMeasurement: 42
--
compound: Nc1n[nH]c2ccc(-c3ccnc4[nH]c(-c5cccc(C(=O)O)c5)cc34)cc12
assayReadout: Ki
observedMeasurement: 168
